Listing: pEC50 of selected compounds
- TARGET_OR_SYSTEM: human δ-opioid receptor, OPRD (Homo sapiens, UniProt P41143)
- Construct: host or cells: HEK-293 overexpressing β-arrestin2 fused to a β-galactosidase fragment
- Sequence (P41143 whole entry, the tested form may be a part): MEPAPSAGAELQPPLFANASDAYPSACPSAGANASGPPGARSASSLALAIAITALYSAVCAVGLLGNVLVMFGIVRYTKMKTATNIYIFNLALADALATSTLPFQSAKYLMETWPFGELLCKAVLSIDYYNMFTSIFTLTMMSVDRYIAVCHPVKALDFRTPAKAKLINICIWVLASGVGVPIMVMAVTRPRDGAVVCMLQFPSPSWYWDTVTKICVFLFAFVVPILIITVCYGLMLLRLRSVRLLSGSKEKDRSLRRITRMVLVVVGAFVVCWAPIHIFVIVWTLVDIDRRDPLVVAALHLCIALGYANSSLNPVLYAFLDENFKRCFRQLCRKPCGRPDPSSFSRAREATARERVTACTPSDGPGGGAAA
- EXPERIMENT_NOTES: Dominant assay: cAMP assay with/without irreversible antagonist β-CNA, OPRD cell line
- Format: cell-based
- CONDITION: addition of β-CNA; Example 3, Tables 5-7; read-out: OPRD Gi β-CNA (+) EC50
# pEC50: negative log10 of molar concentration; output just the value

1. Cc1ccccc1NC(=O)NCC(c1ccc2c(c1)CCO2)N(C)C (single isomer, unassigned) [Compound 8]: 4.45
2. CN1CCc2cc(C(CNC(=O)Nc3ccc(F)cc3)N(C)C)ccc21 (single isomer, unassigned) [Compound 6]: 4.32
3. CN(C)C(CNC(=O)Cc1ccc2c(c1)OCCO2)c1ccccc1 (single isomer, unassigned) [Compound 5]: 5.21
4. CN1CCc2cc(C(CNC(=O)Nc3ccc(F)cc3)N(C)C)ccc21 (racemic) [Compound 2]: 5.62
5. CN1CCc2cc(C(CNC(=O)Nc3ccc(F)cc3)N(C)C)ccc21 (single isomer, unassigned) [Compound 7]: 5.31

Entry CN(C)C(CNC(=O)Cc1ccc2c(c1)OCCO2)c1ccccc1 (racemic) [Compound 1] — recorded pEC50 = 8.05

Entry C[C@@H](Cc1ccsc1)NC(=O)NC[C@H](Cc1ccc(O)cc1)N(C)C [PZM21, reference compound] — recorded pEC50 = 6.54

Entry Cc1ccccc1NC(=O)NCC(c1ccc2c(c1)CCO2)N(C)C (racemic) [Compound 3] — recorded pEC50 = 4.98

Entry Cc1ccccc1NC(=O)NCC(c1ccc2c(c1)CCO2)N(C)C (single isomer, unassigned) [Compound 9] — recorded pEC50 = 5.23

###

- TARGET_OR_SYSTEM: human δ-opioid receptor, OPRD (Homo sapiens, UniProt P41143)
- Construct: host or cells: HEK-293 overexpressing β-arrestin2 fused to a β-galactosidase fragment
- EXPERIMENT_NOTES: Dominant assay: cAMP assay with/without irreversible antagonist β-CNA, OPRD cell line
- Assay type: cell-based
- CONDITION: addition of β-CNA; Example 3, Tables 5-7; read-out: OPRD Gi β-CNA (+) Emax (%)
Please use Met for Emax under 80% and Not met for everything else, ties included.

1. Cc1ccccc1NC(=O)NCC(c1ccc2c(c1)CCO2)N(C)C (racemic) [Compound 3]: Met
2. CN1CCc2cc(C(CNC(=O)Nc3ccc(F)cc3)N(C)C)ccc21 (single isomer, unassigned) [Compound 6]: Not met
3. COc1ccsc1CNCC[C@@]1(c2ccccn2)CCOC2(CCCC2)C1 [TRV130, reference compound]: Met

Threshold test, Emax < 80%: Cc1ccccc1NC(=O)NCC(c1ccc2c(c1)CCO2)N(C)C (single isomer, unassigned) [Compound 8] Met

Threshold test, Emax < 80%: CN(C)C(CNC(=O)Cc1ccc2c(c1)OCCO2)c1ccccc1 (racemic) Not met

###

Listing: Emax of selected compounds
- TARGET_OR_SYSTEM: human μ-opioid receptor, OPRM (Homo sapiens)
- Construct: host or cells: HEK-293 overexpressing β-arrestin2 fused to a β-galactosidase fragment
- Sequence (P35372 whole entry, the tested form may be a part): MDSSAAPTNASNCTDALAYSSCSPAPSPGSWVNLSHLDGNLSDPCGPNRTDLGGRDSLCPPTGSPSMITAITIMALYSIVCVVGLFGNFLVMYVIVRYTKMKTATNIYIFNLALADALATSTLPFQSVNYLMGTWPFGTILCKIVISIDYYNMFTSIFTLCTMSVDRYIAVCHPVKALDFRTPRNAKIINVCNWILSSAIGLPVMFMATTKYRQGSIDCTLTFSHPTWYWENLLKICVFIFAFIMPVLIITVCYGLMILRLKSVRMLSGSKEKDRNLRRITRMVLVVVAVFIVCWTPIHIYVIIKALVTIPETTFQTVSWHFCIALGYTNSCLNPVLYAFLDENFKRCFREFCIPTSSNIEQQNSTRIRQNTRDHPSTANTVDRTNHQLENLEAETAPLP
- EXPERIMENT_NOTES: PathHunter β-arrestin 2 assay, OPRM cell line
- Type: cell-based
- CONDITION: Example 3, Tables 5-7; read-out: OPRM β-ARR2 Emax (%)
Express the result in % but write the number alone.

Examples from the recorded data:
1) CN1CCc2cc(C(CNC(=O)Nc3ccc(F)cc3)N(C)C)ccc21 (racemic): 15.3
2) COc1ccsc1CNCC[C@@]1(c2ccccn2)CCOC2(CCCC2)C1 [TRV130, reference compound]: 2.4
3) CN(C)C(CNC(=O)Cc1ccc2c(c1)OCCO2)c1ccccc1 (racemic): 12.9

Now consider a different compound.
Bench note, human μ-opioid receptor, OPRM (Homo sapiens): Cc1ccccc1NC(=O)NCC(c1ccc2c(c1)CCO2)N(C)C (racemic) , Emax reads 12.2

###

Listing: pEC50 of selected molecules
- TARGET_OR_SYSTEM: human μ-opioid receptor, OPRM (Homo sapiens)
- Construct: host or cells: HEK-293 overexpressing β-arrestin2 fused to a β-galactosidase fragment
- EXPERIMENT_NOTES: Dominant assay: cAMP assay with/without irreversible antagonist β-FNA, OPRM cell line
- Format: cell-based
- CONDITION: addition of β-FNA; repeated dominant assay, Example 4, Tables 8-10; read-out: OPRM Gi β-FNA (+) EC50
# pEC50: negative log10 of molar concentration; output just the value

1. CN1CCc2cc(C(CNC(=O)Nc3ccc(F)cc3)N(C)C)ccc21 (racemic) [Compound 2]: 5.38
2. CN(C)C(CNC(=O)Cc1ccc2c(c1)OCCO2)c1ccccc1 (racemic) [Compound 1]: 5.41
3. CN(C)C(CNC(=O)Cc1ccc2c(c1)OCCO2)c1ccccc1 (single isomer, unassigned) [Compound 5]: 5.39

Entry Cc1ccccc1NC(=O)NCC(c1ccc2c(c1)CCO2)N(C)C (single isomer, unassigned) [Compound 9] — recorded pEC50 = 6.10

###

- TARGET_OR_SYSTEM: human δ-opioid receptor, OPRD (Homo sapiens, UniProt P41143)
- Construct: host or cells: HEK-293 overexpressing β-arrestin2 fused to a β-galactosidase fragment
- EXPERIMENT_NOTES: Dominant assay: cAMP assay with/without irreversible antagonist β-CNA, OPRD cell line
- Format: cell-based
- CONDITION: no addition of β-CNA; Example 3, Tables 5-7; read-out: OPRD Gi β-CNA (−) EC50
Please use condition met for EC50 under 3000 nM and condition not met for everything else, ties included.

Sample answers from the record:
1. Cc1ccccc1NC(=O)NCC(c1ccc2c(c1)CCO2)N(C)C (racemic) [Compound 3]: condition not met
2. CN1CCc2cc(C(CNC(=O)Nc3ccc(F)cc3)N(C)C)ccc21 (single isomer, unassigned) [Compound 7]: condition met
3. CN1CCc2cc(C(CNC(=O)Nc3ccc(F)cc3)N(C)C)ccc21 (racemic) [Compound 2]: condition met
4. C[C@@H](Cc1ccsc1)NC(=O)NC[C@H](Cc1ccc(O)cc1)N(C)C [PZM21, reference compound]: condition met
5. CN(C)C(CNC(=O)Cc1ccc2c(c1)OCCO2)c1ccccc1 (single isomer, unassigned) [Compound 5]: condition not met
6. CN(C)C(CNC(=O)Cc1ccc2c(c1)OCCO2)c1ccccc1 (racemic) [Compound 1]: condition met
7. Cc1ccccc1NC(=O)NCC(c1ccc2c(c1)CCO2)N(C)C (single isomer, unassigned) [Compound 9]: condition met
8. Cc1ccccc1NC(=O)NCC(c1ccc2c(c1)CCO2)N(C)C (single isomer, unassigned) [Compound 8]: condition not met

Consider now this further compound.
Threshold test, EC50 < 3000 nM: CN1CCc2cc(C(CNC(=O)Nc3ccc(F)cc3)N(C)C)ccc21 (single isomer, unassigned) [Compound 6] condition not met

###

- TARGET_OR_SYSTEM: human δ-opioid receptor, OPRD (Homo sapiens, UniProt P41143)
- Construct: host or cells: HEK-293 overexpressing β-arrestin2 fused to a β-galactosidase fragment
- EXPERIMENT_NOTES: Dominant assay: cAMP assay with/without irreversible antagonist β-CNA, OPRD cell line
- Assay type: cell-based
- CONDITION: OPRD Gi β-CNA (−) EC50 (nM), no addition of β-CNA; Example 3, Tables 5-7
PROPERTY_MEASURED: EC50 (nM)
Express the result in nM but write the number alone.

Entry COc1ccsc1CNCC[C@@]1(c2ccccn2)CCOC2(CCCC2)C1 [TRV130, reference compound] — recorded EC50 = 1.49

###

- TARGET_OR_SYSTEM: human δ-opioid receptor, OPRD (Homo sapiens)
- Construct: host or cells: HEK-293 overexpressing β-arrestin2 fused to a β-galactosidase fragment
- EXPERIMENT_NOTES: Dominant assay: cAMP assay with/without irreversible antagonist β-CNA, OPRD cell line
- Assay type: cell-based
- CONDITION: addition of β-CNA; repeated dominant assay, Example 4, Tables 8-10; read-out: OPRD Gi β-CNA (+) Emax (%)
Listing: Emax of selected compounds
Express the result in % but write the number alone.

Examples from the recorded data:
1. CN(C)C(CNC(=O)Cc1ccc2c(c1)OCCO2)c1ccccc1 (racemic): 46.6
2. Cc1ccccc1NC(=O)NCC(c1ccc2c(c1)CCO2)N(C)C (racemic) [Compound 3]: 48.2
3. CN1CCc2cc(C(CNC(=O)Nc3ccc(F)cc3)N(C)C)ccc21 (single isomer, unassigned) [Compound 6]: 81.4

Entry Cc1ccccc1NC(=O)NCC(c1ccc2c(c1)CCO2)N(C)C (single isomer, unassigned) [Compound 8] — recorded Emax = 42.7

Entry CN1CCc2cc(C(CNC(=O)Nc3ccc(F)cc3)N(C)C)ccc21 (racemic) [Compound 2] — recorded Emax = 70.2

###

Listing: Emax of selected molecules
- TARGET_OR_SYSTEM: human δ-opioid receptor, OPRD (Homo sapiens)
- Construct: host or cells: HEK-293 overexpressing β-arrestin2 fused to a β-galactosidase fragment
- EXPERIMENT_NOTES: PathHunter β-arrestin 2 assay, OPRD cell line
- Assay type: cell-based
- CONDITION: Example 3, Tables 5-7; read-out: OPRD β-ARR2 Emax (%)

1. CN1CCc2cc(C(CNC(=O)Nc3ccc(F)cc3)N(C)C)ccc21 (racemic) [Compound 2]: 4.66%
2. Cc1ccccc1NC(=O)NCC(c1ccc2c(c1)CCO2)N(C)C (racemic): 1.99%
3. COc1ccsc1CNCC[C@@]1(c2ccccn2)CCOC2(CCCC2)C1 [TRV130, reference compound]: 9.6%

Entry CN1CCc2cc(C(CNC(=O)Nc3ccc(F)cc3)N(C)C)ccc21 (single isomer, unassigned) [Compound 6] — recorded Emax = 10.5%

Entry CN(C)C(CNC(=O)Cc1ccc2c(c1)OCCO2)c1ccccc1 (racemic) — recorded Emax = 7.37%

Origin of values: patent US20220204449A1
